Target: hα2A receptor (Homo sapiens)
Construct: expressed in transfected cells; host or cells: CHO cells, stably transfected; membrane preparation
Sequence (P08913 whole entry): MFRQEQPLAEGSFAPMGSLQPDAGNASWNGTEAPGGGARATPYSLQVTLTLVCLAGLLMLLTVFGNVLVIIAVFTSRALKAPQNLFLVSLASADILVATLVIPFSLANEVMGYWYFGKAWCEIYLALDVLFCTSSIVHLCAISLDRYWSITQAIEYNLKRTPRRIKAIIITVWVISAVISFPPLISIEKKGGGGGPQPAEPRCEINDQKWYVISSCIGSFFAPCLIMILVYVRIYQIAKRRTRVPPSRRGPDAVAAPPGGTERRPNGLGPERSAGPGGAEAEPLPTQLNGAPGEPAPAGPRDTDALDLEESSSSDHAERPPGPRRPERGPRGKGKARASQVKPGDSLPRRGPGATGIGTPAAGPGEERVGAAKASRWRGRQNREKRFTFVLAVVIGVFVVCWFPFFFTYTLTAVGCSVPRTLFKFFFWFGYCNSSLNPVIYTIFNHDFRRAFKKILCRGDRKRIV
Test: Radioligand binding experiment for α2A-adrenoceptor ([3H]raulwolscine, CHO cell membranes)
Settings: [3H]raulwolscine binding, read-out: h-α2A pIC50 (converted)
Readout: IC50 (nM)

Compound | Readout Unit | IC50
COc1ccc(CNC(=O)Cn2ccnc(NC3CCN(C/C(C)=C/c4ccccc4)CC3)c2=O)cc1 [1-64] | nM | 251
C/C(=C\c1ccccc1)CN1CCC(Nc2nccn(CC(=O)C34CC5CC(CC(C5)C3)C4)c2=O)CC1 [7-10] | nM | 50.1
CN(C)CCn1ccnc(NC2CCN(C/C=C/c3ccccc3)CC2)c1=O [16-1] | nM | 1580
COc1ccc(NC(=O)Cn2ccnc(NC3CCN(C/C(C)=C/c4ccccc4)CC3)c2=O)cc1 [1-63] | nM | 100
C/C(=C\c1ccccc1)CN1CCC(Nc2nccn(CCN3CCOCC3)c2=O)CC1 [2-39] | nM | 316

A. C/C(=C\c1ccccc1)CN1CCN(c2nccn(CCOc3ccccc3)c2=O)CC1 [10-2]
B. COC(=O)c1ccc(-n2ccnc(NC3CCN(C/C(C)=C/c4ccccc4)CC3)c2=O)cc1 [3-12]
q: Sort A and B by IC50 descending and give the first. Kindly give the label for the entry you pick.
a: A

----------
Target: 5HT-Transporter (Homo sapiens)
Construct: Human platelet membranes (Oceanix Biosciences Corporation, Hanover, Md., USA) were thawed; tissue Oceanix Biosciences Corporation, Hanover, Md., USA; host or cells: human platelet membranes
Test: Binding experiment for the 5HT-transporter ([3H]paroxetine, human platelet membranes)
Conditions: [3H]paroxetine 0.5 nM, read-out: h-5HTT pIC50 (converted)
Readout: IC50 (nM)

Compound | Readout Unit | IC50
C/C(=C\c1ccccc1)CN1CCC(Nc2nccn(-c3ccc(Nc4ccc(F)cc4)cc3)c2=O)CC1 | nM | 794
C/C(=C\c1ccccc1)CN1CCC(Nc2nccn(CCCN(C)C(=O)Nc3ccccc3)c2=O)CC1 | nM | 794
COC(=O)c1ccc(Cn2ccnc(NC3CCN(C/C(C)=C/c4ccccc4)CC3)c2=O)cc1 | nM | 794
COCCN(C)C(=O)c1ccc(-n2ccnc(NC3CCN(C/C(C)=C/c4ccccc4)CC3)c2=O)cc1 | nM | 501

A. C/C(=C\c1ccccc1)CN1CCC(Nc2nccn(Cc3ccc(C(F)(F)F)cc3)c2=O)CC1
B. CC(C)(C)OC(=O)NCCCn1ccnc(NC2CCN(C/C=C/c3ccccc3)CC2)c1=O
q: // compare measured IC50 between A and B ; output the lower one Identify your pick by its label.
a: A
(A: 794 nM, B: 1260 nM)

a. COc1ccc(NC(=O)Cn2ccnc(NC3CCN(C/C(C)=C/c4ccccc4)CC3)c2=O)cc1
b. C/C(=C\c1ccccc1)CN1CCC(Nc2nccn(CC(=O)N3CCC(Cc4ccccc4)CC3)c2=O)CC1
c. COCCN(C)Cc1cccc(-n2ccnc(NC3CCN(C/C(C)=C/c4ccccc4)CC3)c2=O)c1
q: Arrange the 3 compounds from largest to smallest IC50. Provide your answer as the labels ordered per the instruction.
a: c, a, b

a. C/C(=C\c1ccccc1)CN1CCC(Nc2nccn(Cc3ccc(CN)cc3)c2=O)CC1 [1-7]
b. C/C(=C\c1ccccc1)CN1CCC(Nc2nccn(Cc3ccc(F)cc3)c2=O)CC1
c. COc1ccc(Cn2ccnc(NC3CCN(C/C(C)=C/c4ccccc4)CC3)c2=O)cc1
q: Task field, ranking: reported IC50, descending order. Order the labels as requested and list them.
a: b, a, c

----------
Target: 5HT-Transporter (Homo sapiens, UniProt P31645)
Construct: Human platelet membranes (Oceanix Biosciences Corporation, Hanover, Md., USA) were thawed; tissue Oceanix Biosciences Corporation, Hanover, Md., USA; host or cells: human platelet membranes
Sequence (P31645 whole entry): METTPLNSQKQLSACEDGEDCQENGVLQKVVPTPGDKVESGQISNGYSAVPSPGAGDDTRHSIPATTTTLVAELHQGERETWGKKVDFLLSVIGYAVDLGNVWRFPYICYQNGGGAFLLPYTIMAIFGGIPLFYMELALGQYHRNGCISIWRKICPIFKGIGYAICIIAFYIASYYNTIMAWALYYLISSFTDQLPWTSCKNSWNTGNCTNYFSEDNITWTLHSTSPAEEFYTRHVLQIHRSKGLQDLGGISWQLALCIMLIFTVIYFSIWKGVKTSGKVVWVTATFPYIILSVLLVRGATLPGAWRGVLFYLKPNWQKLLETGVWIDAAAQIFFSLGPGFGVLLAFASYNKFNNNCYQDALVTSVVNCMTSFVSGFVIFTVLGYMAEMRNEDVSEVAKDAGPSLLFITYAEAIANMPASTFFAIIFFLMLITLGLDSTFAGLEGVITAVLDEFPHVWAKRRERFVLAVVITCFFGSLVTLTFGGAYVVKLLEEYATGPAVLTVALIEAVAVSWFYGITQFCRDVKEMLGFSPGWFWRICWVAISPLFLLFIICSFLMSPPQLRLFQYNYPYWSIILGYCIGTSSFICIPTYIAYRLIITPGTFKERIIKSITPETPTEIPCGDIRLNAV
Experiment: Binding experiment for the 5HT-transporter ([3H]paroxetine, human platelet membranes)
Conditions: [3H]paroxetine 0.5 nM, read-out: h-5HTT pIC50 (converted)
Readout: IC50 (nM)

Compound | IC50, nM
C/C(=C\c1ccccc1)CN1CCC(Nc2nccn(Cc3ccc(CNC(=O)NCCS)cc3)c2=O)CC1 | 316

a. C/C(=C\c1ccccc1)CN1CCN(c2nccn(Cc3ccco3)c2=O)CC1
b. C/C(=C\c1ccccc1)CN1CCC(Nc2nccn(Cc3ccc(CNS(=O)(=O)c4c(C)noc4C)cc3)c2=O)CC1
c. C/C(=C\c1ccccc1)CN1CCC(Nc2nccn(-c3ccc(NCCc4ccccc4)cc3)c2=O)CC1
d. C/C(=C\c1ccccc1)CN1CCC(Nc2nccn(-c3ccc(NC(=O)Cc4ccccc4)cc3)c2=O)CC1
q: Place the items in sequence of falling IC50. To answer, write out the labels according to the requested order.
a: a, c, b, d

I. C/C(=C\c1ccccc1)CN1CCC(Nc2nccn(CC(=O)NCc3cccnc3)c2=O)CC1
II. COc1cc(CNC(=O)Cn2ccnc(NC3CCN(C/C(C)=C/c4ccccc4)CC3)c2=O)cc(OC)c1
q: Which of the two items, I and II , has the greater recorded IC50? Kindly give the label for the entry you pick.
a: I
(I: 1580 nM, II: 794 nM)

I. CCc1ccc(-n2ccnc(NC3CCN(C/C(C)=C/c4ccccc4)CC3)c2=O)cc1
II. C/C(=C\c1ccccc1)CN1CCC(Nc2nccn(CC(=O)N(CCN3CCCC3)Cc3ccc(F)cc3)c2=O)CC1
q: Recorded IC50 values differ for I and II ; which one is higher? Mark your selection by writing its label.
a: II

I. C/C(=C\c1ccccc1)CN1CCC(Nc2nccn(CC(=O)Nc3ccccc3)c2=O)CC1
II. C/C(=C\c1ccccc1)CN1CCC(Nc2nccn(CC(=O)NCC3CCCO3)c2=O)CC1 (stereo not drawn)
q: I'm curious, which of these has a smaller IC50 number: I or II ? Lab log: write the label of the selected item as the result.
a: I

----------
Molecular target: 5HT-Transporter (Homo sapiens, UniProt P31645)
Construct: Human platelet membranes (Oceanix Biosciences Corporation, Hanover, Md., USA) were thawed; tissue Oceanix Biosciences Corporation, Hanover, Md., USA; host or cells: human platelet membranes
Assay: Binding experiment for the 5HT-transporter ([3H]paroxetine, human platelet membranes)
Conditions: [3H]paroxetine 0.5 nM, read-out: h-5HTT pIC50 (converted)
Readout: IC50 (nM)

Would you please look over these solved cases?
Molecule Smiles | Readout Unit | IC50
COC(=O)c1ccc(-n2ccnc(NC3CCN(C/C(C)=C/c4ccccc4)CC3)c2=O)cc1 | nM | 501
CNCc1ccc(Cn2ccnc(NC3CCN(C/C(C)=C/c4ccccc4)CC3)c2=O)cc1 | nM | 1580
C/C(=C\c1ccccc1)CN1CCC(Nc2nccn(CCCN(C(=O)Nc3ccccc3)c3ccccc3)c2=O)CC1 | nM | 200

A. C/C(=C\c1ccccc1)CN1CCC(Nc2nccn(-c3cccc(CN4CCCCC4)c3)c2=O)CC1
B. O=c1c(NC2CCN(C/C=C/c3ccccc3)CC2)nccn1Cc1ccccc1Br
C. C/C(=C\c1ccccc1)CN1CCN(c2nccn(CCOc3ccccc3)c2=O)CC1
D. C/C(=C\c1ccccc1)CN1CCC(Nc2nccn(C/C=C/c3ccccc3)c2=O)CC1
q: Ascending sort, IC50. # respond with the labels, arranged in the requested order
a: A, D, B, C

----------
Target: hα2C receptor (Homo sapiens, UniProt P18825)
Construct: expressed in transfected cells; host or cells: CHO cells, stably transfected; membrane preparation
Sequence (P18825 whole entry): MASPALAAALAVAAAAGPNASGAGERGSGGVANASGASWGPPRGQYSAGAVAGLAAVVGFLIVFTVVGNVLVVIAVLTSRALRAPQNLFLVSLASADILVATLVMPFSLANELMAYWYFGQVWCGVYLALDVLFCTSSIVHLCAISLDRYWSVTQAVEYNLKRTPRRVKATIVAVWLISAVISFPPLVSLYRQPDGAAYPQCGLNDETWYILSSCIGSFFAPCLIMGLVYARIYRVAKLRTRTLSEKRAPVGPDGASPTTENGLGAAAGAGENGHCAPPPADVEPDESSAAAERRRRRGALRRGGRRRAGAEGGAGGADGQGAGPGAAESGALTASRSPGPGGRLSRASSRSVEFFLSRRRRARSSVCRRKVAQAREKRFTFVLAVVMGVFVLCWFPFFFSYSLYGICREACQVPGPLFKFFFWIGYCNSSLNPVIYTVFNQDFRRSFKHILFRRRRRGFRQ
Assay: Radioligand binding experiment for α2C-adrenoceptor ([3H]raulwolscine, CHO cell membranes)
Details: [3H]raulwolscine binding, read-out: h-α2C pIC50 (converted)
Readout: IC50 (nM)

Check out these entries, answers already filled in.
Compound | Readout Unit | IC50
CCCC(=O)NCc1ccc(Cn2ccnc(NC3CCN(C/C(C)=C/c4ccccc4)CC3)c2=O)cc1 | nM | 50.1
COc1ccc(Cn2c(-c3cccc(Br)c3)c(Cl)nc(NC3CCN(C/C(C)=C/c4ccccc4)CC3)c2=O)cc1 | nM | 501
C/C(=C\c1ccccc1)CN1CCN(c2nccn(CC(=O)c3ccc(-c4ccccc4)cc3)c2=O)CC1 | nM | 251

P. C/C(=C\c1ccccc1)CN1CCC(Nc2nccn(Cc3csc(C)n3)c2=O)CC1 [6-7]
Q. CC(=O)CN(C)CCCn1ccnc(NC2CCN(C/C(C)=C/c3ccccc3)CC2)c1=O
q: Recorded IC50 values differ for P and Q ; which one is higher? // return label of chosen record
a: P

----------
Molecular target: hα2A receptor (Homo sapiens)
Construct: expressed in transfected cells; host or cells: CHO cells, stably transfected; membrane preparation
Assay: Radioligand binding experiment for α2A-adrenoceptor ([3H]raulwolscine, CHO cell membranes)
Settings: [3H]raulwolscine binding, read-out: h-α2A pIC50 (converted)
Readout: IC50 (µM)

Use these answered entries as a reference point.
Compound | Value Measured
C/C(=C\c1ccccc1)CN1CCC(Nc2nccn(CCCN(Cc3ccccc3)C(=O)Nc3ccccc3)c2=O)CC1 [1-123] | 0.158
C/C(=C\c1ccccc1)CN1CCC(Nc2nccn(-c3cccc(N(Cc4ccccc4)c4ccccc4)c3)c2=O)CC1 [1-70] | 0.0316
C/C(=C\c1ccccc1)CN1CCC(Nc2nccn(CC(=O)N(C)CCO)c2=O)CC1 [1-21] | 0.316
C/C(=C\c1ccccc1)CN1CCC(Nc2nccn(CC(=O)N3CCOCC3)c2=O)CC1 [2-41] | 0.126
C/C(=C\c1ccccc1)CN1CCC(Nc2nccn(-c3ccc(C(=O)N4CCN(C)CC4)cc3)c2=O)CC1 [2-21] | 0.1
CCCNC(=O)NCc1ccc(Cn2ccnc(NC3CCN(C/C(C)=C/c4ccccc4)CC3)c2=O)cc1 [1-115] | 0.251

P. C/C(=C\c1ccccc1)CN1CCC(Nc2nccn(CCN3CCCCC3)c2=O)CC1 [2-3]
Q. C/C(=C\c1ccccc1)CN1CCC(Nc2nccn(-c3ccc(CN(C)CCN(C)C)cc3)c2=O)CC1 [1-110]
q: Of the two listed items, which has the higher IC50? First: P Second: Q Could you answer with the label of the item you picked?
a: P
(P: 0.0631 µM, Q: 0.02 µM)

a. C/C(=C\c1ccccc1)CN1CCC(Nc2nccn(CC(=O)C(C)(C)C)c2=O)CC1 [7-9]
b. C/C(=C\c1ccccc1)CN1CCC(Nc2nccn(CCCN(Cc3ccccc3)S(=O)(=O)c3ccccc3)c2=O)CC1 [1-170]
c. CCOC(=O)CCCCn1ccnc(NC2CCN(C/C=C/c3ccccc3)CC2)c1=O [16-11]
d. C/C(=C\c1ccccc1)CN1CCC(Nc2nccn(CC(=O)N(CCN3CCCC3)CC3CCCCC3)c2=O)CC1 [1-134]
q: Reorder the items by IC50, least to greatest. // format: requested-order list of labels
a: d, a, b, c

1. C/C(=C\c1ccccc1)CN1CCC(Nc2nccn(CC(=O)c3cccc(-c4ccccc4)c3)c2=O)CC1 [5-33]
2. C/C(=C\c1ccccc1)CN1CCC(Nc2nccn(C/C=C/CN3C(=O)c4ccccc4C3=O)c2=O)CC1 [2-52]
q: // task: argmin of IC50 over [ 1 , 2 ] Selection: enter the item's label.
a: 2
(2: 0.0501 µM, 1: 0.0794 µM)

I. C/C(=C\c1ccccc1)CN1CCC(Nc2nccn(CC(=O)N(CCN3CCOCC3)Cc3ccc(F)cc3)c2=O)CC1 [1-151]
II. C#CCN(C)C(=O)Cn1ccnc(NC2CCN(C/C(C)=C/c3ccccc3)CC2)c1=O [1-28]
q: Which is greater in IC50, the first item I or the second item II ? // output: label of the selected item
a: I

1. C/C(=C\c1ccccc1)CN1CCC(Nc2nccn(Cc3ccccc3F)c2=O)CC1 [5-11]
2. C/C(=C\c1ccccc1)CN1CCN(c2nccn(CCCNC(=O)OC(C)(C)C)c2=O)CC1 [8-3]
q: Hey, between 1 and 2 which has a smaller measured IC50? Indicate your choice by writing its label.
a: 1
(1: 0.158 µM, 2: 0.398 µM)

I. C/C(=C\c1ccccc1)CN1CCC(Nc2nccn(CCCCN3C(=O)c4ccccc4C3=O)c2=O)CC1 [2-51]
II. C/C(=C\c1ccccc1)CN1CCC(Nc2nccn(CC(=O)NCCN3CCOCC3)c2=O)CC1 [1-148]
III. C/C(=C\c1ccccc1)CN1CCN(c2ncc[nH]c2=O)CC1 [14-1]
q: Put the compounds in ascending order of IC50. Response field: labels, in requested order.
a: I, III, II

I. CCCC(=O)NCCCn1ccnc(NC2CCN(C/C(C)=C/c3ccccc3)CC2)c1=O [1-32]
II. C/C(=C\c1ccccc1)CN1CCC(Nc2nccn(-c3ccc(NCc4ccccc4)cc3)c2=O)CC1 [1-50]
q: Of I and II , which one carries the higher reported IC50? Field: selected label. Fill in the label of the entry you choose.
a: I
(I: 0.2 µM, II: 0.1 µM)
